test system: SF-539 CNS; test: NCI-60 one-dose screen, 48 h; settings: 10 µM
The panel holds about 83,000 compounds, 20% with a hit somewhere; the sample as a whole holds those more often. Activity calls are given as the source filed them. The calls were made as follows: active = growth percent below 10; inactive = the rest.
Field 'call' accepts true (1) for active, false (0) for inactive

Ask: Hey, what did the test say about "Fc1ccc(C(c2ccc(F)cc2)C(Cl)Cl)cc1" ?
Result: false (0)

Ask: # lookup: test call for O=C(Nc1cc(Cl)cc2c1-c1ccc(Cl)cc1C2O)C(Cl)Cl (stereo unspecified)
Result: false (0)

Ask: In this assay, the call recorded for "CCOC(=O)CN(c1sc(C)c(C)c1C(=O)OCC)S(=O)(=O)c1ccc(C)cc1" was what?
Result: false (0)

Ask: I would be grateful if you could indicate the recorded call for COc1ccc(/C=C2\CCCC3=C2NC(N)=NC3c2ccc(OC)c(OC)c2)cc1OC (stereo unspecified) .
Result: false (0)

Ask: Record request — test call for "CC(=O)N[C@H](C(=O)N[C@@H](CCCNC(=N)N)C(=O)N[C@@H](CCCCN)C(=O)N[C@@H](CCCNC(=N)N)C(=O)N[C@]1(C)CCCCCC/C=C\CCC[C@@](C)(C(=O)N[C@@H](CCCNC(=N)N)C(=O)N[C@@H](CCC(=O)O)C(=O)N[C@@H](CC(C)C)C(=O)N[C@H](C(=O)N[C@@H](CCC(=O)O)C(N)=O)C(C)C)NC(=O)[C@H](CCC(N)=O)NC(=O)[C@H](CC(C)C)NC(=O)[C@H](CC(C)C)NC(=O)[C@H](CCCNC(=N)N)NC(=O)[C@H](CCCNC(=N)N)NC(=O)[C@H](CC(C)C)NC1=O)C(C)C"
Result: true (1)

Ask: Hey, what did the test say about "COc1cc(-c2nn(-c3cccc(NC(=O)NCCNC(=O)c4cccc(C(F)(F)F)c4)c3)cc2-c2ccncc2)ccc1Cl" ?
Result: false (0)

Ask: Call for entry "COc1ccc(N=Nc2cc(OC)c(OC)c(OC)c2)cc1" :
Result: false (0)

Ask: What is the recorded call for this compound in the test? "COc1cc2cc(Oc3ccc(NC(=O)c4ccccc4)cc3)c(C)nc2cc1OC"
Result: false (0)

Ask: How did this test come out for "COc1ccc(CCN2CCC(Nc3nc4ccccc4n3Cc3ccc(F)cc3)CC2)cc1" ?
Result: true (1)

Ask: # outcome recorded in this test, key = "CCOC(=O)c1cc(C(=O)c2ccc(OC)c(OC)c2)n2c1ccc1ccc3cccnc3c12"
Result: true (1)

Ask: What outcome does the record of this test show for "COc1cc(N)c2ncccc2c1SC" ?
Result: false (0)

Ask: What outcome does the record of this test show for "COc1ccc(-c2nc(-c3nc4ccc(C)cc4[nH]3)cc3c2[nH]c2ccccc23)cc1" ?
Result: false (0)

Ask: Assay outcome for CC(=O)N[C@H](C(=O)N[C@@H](CCCNC(=N)N)C(=O)N[C@@H](CCCCN)C(=O)N[C@@H](CCCNC(=N)N)C(=O)NC(C(=O)N[C@@H](CC(C)C)C(=O)N[C@@H](CCCNC(=N)N)C(=O)N[C@@]1(C)CCC/C=C\CCC[C@@](C)(C(=O)N[C@@H](CCCNC(=N)N)C(=O)N[C@@H](CCC(=O)O)C(=O)N[C@@H](CC(C)C)C(=O)N[C@H](C(=O)N[C@@H](CCC(=O)O)C(N)=O)C(C)C)NC(=O)[C@H](CCC(N)=O)NC(=O)[C@H](CC(C)C)NC(=O)[C@H](CC(C)C)NC1=O)[C@@H](C)O)C(C)C (stereo partly specified) : what was it?
Result: true (1)

Ask: Hey, what did the test say about "Cc1c(Cl)cccc1NC(=O)CN1CCOCC1" ?
Result: false (0)

Ask: // param item: "CC(C)(C)OC(=O)CC(S(=O)(=O)c1ccccc1)S(=O)(=O)c1ccccc1" ; yields the recorded call
Result: false (0)

Ask: Kindly provide the recorded test outcome for the following compound: "Cc1ccc(N=Nc2ccccc2)cc1"
Result: false (0)

All figures here come from PubChem BioAssay (NCI).
